Target: T1, human Rh(D) antigen on Rh(D)-positive red blood cells (human, UniProt Q02161 2-417)
T1 construct: whole, on cells; also called wt; wild type Rh(D)
T1 sequence (looked up): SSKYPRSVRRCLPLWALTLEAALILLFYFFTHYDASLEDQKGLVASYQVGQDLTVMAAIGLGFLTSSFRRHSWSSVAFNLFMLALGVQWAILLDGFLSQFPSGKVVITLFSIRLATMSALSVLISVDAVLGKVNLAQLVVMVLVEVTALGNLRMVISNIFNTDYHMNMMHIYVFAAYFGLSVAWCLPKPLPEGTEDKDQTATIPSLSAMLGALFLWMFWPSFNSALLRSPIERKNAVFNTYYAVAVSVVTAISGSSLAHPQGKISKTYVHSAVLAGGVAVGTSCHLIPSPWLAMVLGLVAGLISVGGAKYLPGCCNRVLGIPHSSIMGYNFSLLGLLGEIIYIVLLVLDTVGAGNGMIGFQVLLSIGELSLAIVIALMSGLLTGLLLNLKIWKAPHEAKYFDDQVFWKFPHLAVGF
Assay: agglutination, anti-M13

- binder: "SH32 (Fab, V domains shown, Fab on M13 phage) VH: EVQLLESGGGVVQPGRSLRLSCEASKFTLYNYGMHWVRQAPGKGLEWVAFIWFDGSNKYYEDSVKGRFTVSRDNSKNTLYLQMNSLRAEDTAVYYCARELSKKVALSRYYYYMDVWGQGTTVTVSS VL: AELTQEPSLTVSPGGTVTLTCASSTGAVTSRYFPNWFQQKPGQAPRALIYGSNNKHSWTPARFSGSLLGGKAALTLSGVQPEDEAEYYCLLFYAGAWAFGGGTKLTVL"
  binding result: "binds"
- binder: "SH04 (Fab, V domains shown, Fab on M13 phage) VH: EVQLLESGGGVVQPGRSLRLSCAASGFTFSTYGMHWVRQAPGKGLEWVAVIWFDGSNKEYADSVKGRFTISRDNSKNTLYLQMNSLRAEDTAVYYCAREEVVRGVILWSRKFDYWGQGTLVTVSS VL: AELTQSPSSLSASVGDRVTITCRASQNIRRSLNWYQQKPGKAPKLLIYAASSLQSGVPSRFSGSGSGTDFTLTISSLQPEDFATYYCQQSSNTPWTFGQGTKVEIKR"
  binding result: "binds"
- binder: "SH44 (Fab, V domains shown, Fab on M13 phage) VH: EVQLLESGGGVAQPGRSLRLSCVASGFSLRSYGMHWVRQAPGKGLEWVADIWFDGSNKDYADSVKGRFTISRDNSKNTLYLQMNSLRAEDTAVYYCARDWRVRAFSSGWLSAFDIWGQGTMVTVSS VL: AELTQSPSSLSASVGDRVIITCRASQTIPRFLNWYQQKPGKAPVLLIHSISSLQSGVPSRFSASGSGTEFTLTISSLQPEDFATYYCQQSYSNLSFGPGTTVDIRR"
  binding result: "binds"
